- measuredTarget: Discoidin domain-containing receptor 2 (Homo sapiens) (UniProt Q16832);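 note: reported figure is the mean inhibition of DDR2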
- Sequence (whole entry): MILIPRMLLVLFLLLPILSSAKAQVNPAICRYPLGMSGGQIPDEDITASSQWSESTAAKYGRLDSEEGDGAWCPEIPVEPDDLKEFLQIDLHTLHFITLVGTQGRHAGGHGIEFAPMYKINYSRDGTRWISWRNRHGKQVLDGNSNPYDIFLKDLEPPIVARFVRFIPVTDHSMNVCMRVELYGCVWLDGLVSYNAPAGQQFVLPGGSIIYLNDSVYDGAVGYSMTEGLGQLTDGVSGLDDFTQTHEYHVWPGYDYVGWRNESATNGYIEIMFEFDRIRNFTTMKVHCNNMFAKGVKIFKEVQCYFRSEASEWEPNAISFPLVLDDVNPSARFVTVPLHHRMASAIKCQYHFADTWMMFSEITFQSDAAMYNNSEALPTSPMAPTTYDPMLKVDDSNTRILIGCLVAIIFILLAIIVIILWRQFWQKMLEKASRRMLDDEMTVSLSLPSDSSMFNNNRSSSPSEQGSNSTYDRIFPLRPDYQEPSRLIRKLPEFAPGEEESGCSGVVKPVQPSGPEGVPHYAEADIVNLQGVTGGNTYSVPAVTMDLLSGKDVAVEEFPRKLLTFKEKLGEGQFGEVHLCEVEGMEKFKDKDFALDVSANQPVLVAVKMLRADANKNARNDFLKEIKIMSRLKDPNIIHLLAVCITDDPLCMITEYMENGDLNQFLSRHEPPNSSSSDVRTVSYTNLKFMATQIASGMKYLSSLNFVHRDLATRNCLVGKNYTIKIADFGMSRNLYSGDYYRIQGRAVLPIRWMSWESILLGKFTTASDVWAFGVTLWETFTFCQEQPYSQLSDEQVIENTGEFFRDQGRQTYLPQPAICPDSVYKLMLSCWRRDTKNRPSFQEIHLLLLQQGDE
- measurementContext: at 1 µM
Each entry below lists one item and its recorded inhibition value.
measurementLabel: inhibition (%)

[
  {
    "molecule": "[O-][S+]1CCN(Cc2ccc(-c3ccc4ncnc(Nc5ccc(OCc6cccc(F)c6)c(Cl)c5)c4c3)o2)CC1",
    "measuredTarget": "Discoidin domain-containing receptor 2 (Homo sapiens) (UniProt Q16832)",
    "readoutNumber": 2.37
  },
  {
    "molecule": "COc1ccc(-c2cc3c(N)ncnc3o2)cc1",
    "measuredTarget": "Discoidin domain-containing receptor 2 (Homo sapiens) (UniProt Q16832)",
    "readoutNumber": 0.02
  },
  {
    "molecule": "CS(=O)(=O)CCNCc1ccc(-c2ccc3ncnc(Nc4ccc(OCc5ccccc5)c(C(F)(F)F)c4)c3c2)o1",
    "measuredTarget": "Discoidin domain-containing receptor 2 (Homo sapiens) (UniProt Q16832)",
    "readoutNumber": 1.84
  },
  {
    "molecule": "COc1cc2c(cc1Nc1nc(Nc3ccsc3C(N)=O)c3cc[nH]c3n1)N(C(=O)CN(C)C)CCC2(C)C",
    "measuredTarget": "Discoidin domain-containing receptor 2 (Homo sapiens) (UniProt Q16832)",
    "readoutNumber": 1.72
  },
  {
    "molecule": "CC1=C(C(=O)Nc2cc(Cl)c3[nH]ncc3c2)C(c2ccc(C(F)(F)F)cc2)CC(=O)N1 (centres undefined)",
    "measuredTarget": "Discoidin domain-containing receptor 2 (Homo sapiens) (UniProt Q16832)",
    "readoutNumber": 1.35
  },
  {
    "molecule": "CC(=O)NCc1cccc(C#Cc2cncnc2Nc2ccc(OCc3cccc(F)c3)c(Cl)c2)c1",
    "measuredTarget": "Discoidin domain-containing receptor 2 (Homo sapiens) (UniProt Q16832)",
    "readoutNumber": 1.46
  },
  {
    "molecule": "CCn1cc(-c2ccnc3[nH]ccc23)c(-c2cccc(NC(=O)Nc3ccc(OCc4ccccc4)cc3)c2)n1",
    "measuredTarget": "Discoidin domain-containing receptor 2 (Homo sapiens) (UniProt Q16832)",
    "readoutNumber": 21
  },
  {
    "molecule": "COc1ccc(-c2oc3ncnc(N)c3c2-c2ccc(NC(=O)Nc3cc(C(F)(F)F)ccc3F)cc2)cc1",
    "measuredTarget": "Discoidin domain-containing receptor 2 (Homo sapiens) (UniProt Q16832)",
    "readoutNumber": 87.3
  },
  {
    "molecule": "Fc1cccc(COc2ccc(Nc3ncnc4sc(-c5ccco5)cc34)cc2Cl)c1",
    "measuredTarget": "Discoidin domain-containing receptor 2 (Homo sapiens) (UniProt Q16832)",
    "readoutNumber": 4.41
  },
  {
    "molecule": "O=S(=O)(CCNCc1ccc(-c2ccc3ncnc(Nc4ccc(OCc5cccc(F)c5)c(Cl)c4)c3c2)o1)c1ccccc1",
    "measuredTarget": "Discoidin domain-containing receptor 2 (Homo sapiens) (UniProt Q16832)",
    "readoutNumber": 6.18
  },
  {
    "molecule": "CCn1c(-c2nonc2N)nc2c(C#CC(C)(C)O)nc(OC[C@H](N)c3ccccc3)cc21",
    "measuredTarget": "Discoidin domain-containing receptor 2 (Homo sapiens) (UniProt Q16832)",
    "readoutNumber": 1.65
  },
  {
    "molecule": "CCc1nn2ncccc2c1-c1ccnc(NC2CC2)n1",
    "measuredTarget": "Discoidin domain-containing receptor 2 (Homo sapiens) (UniProt Q16832)",
    "readoutNumber": 1.6
  },
  {
    "molecule": "NC(=O)c1sc(-n2cnc3ccc(C(F)(F)F)cc32)cc1OCc1ccccc1Br",
    "measuredTarget": "Discoidin domain-containing receptor 2 (Homo sapiens) (UniProt Q16832)",
    "readoutNumber": 0.21
  },
  {
    "molecule": "COc1cc(Nc2nccc(Nc3ccc4c(C)n[nH]c4c3)n2)cc(OC)c1OC",
    "measuredTarget": "Discoidin domain-containing receptor 2 (Homo sapiens) (UniProt Q16832)",
    "readoutNumber": 43.1
  },
  {
    "molecule": "CC(C)COC(=O)c1ccc2c(c1)/C(=C/Nc1ccc(S(N)(=O)=O)cc1)C(=O)N2",
    "measuredTarget": "Discoidin domain-containing receptor 2 (Homo sapiens) (UniProt Q16832)",
    "readoutNumber": 2.05
  },
  {
    "molecule": "CCn1c(-c2nonc2N)nc2c(C#CC(C)(C)O)ncc(OC3CCNCC3)c21",
    "measuredTarget": "Discoidin domain-containing receptor 2 (Homo sapiens) (UniProt Q16832)",
    "readoutNumber": 1.03
  },
  {
    "molecule": "Fc1ccc(-c2nn3ccccc3c2-c2ccncc2)cc1",
    "measuredTarget": "Discoidin domain-containing receptor 2 (Homo sapiens) (UniProt Q16832)",
    "readoutNumber": 5.54
  },
  {
    "molecule": "O=C(O[C@H]1CN[C@H](C#Cc2cc3ncnc(Nc4ccc(Cc5ccccc5)cc4)c3s2)C1)N1CCOCC1",
    "measuredTarget": "Discoidin domain-containing receptor 2 (Homo sapiens) (UniProt Q16832)",
    "readoutNumber": -1.26
  },
  {
    "molecule": "c1ccc(COc2ccc(Nc3ncnc4ccc(-c5ccco5)cc34)cc2)cc1",
    "measuredTarget": "Discoidin domain-containing receptor 2 (Homo sapiens) (UniProt Q16832)",
    "readoutNumber": 1.14
  }
]
